Data origin: patent US20190119284A1

# test protocol: Pharmacokinetic study, IV administration in male CD-1 mice
# Format: in vivo
# measurement conditions: male, CD-1, mouse, plasma, iv, 2 mg/kg, individual mice M1-M3, read-out: C0
endpoint: C0
In your response, the unit should come after the numeric value.

Summary for this compound, COc1ccc(-c2ccc(F)cc2)cc1Nc1ncnc2[nH]nc(-c3cc[nH]n3)c12 [8168C] : C0 is 754 ng/mL

What the record says about COc1ccc(-c2cccc(F)c2)cc1Nc1ncnc2[nH]nc(-c3cc[nH]n3)c12 [8168B] : C0 is 72.4 ng/mL

====

# test protocol: Pharmacokinetic study, IP administration in male CD-1 mice
# Format: in vivo
# measurement conditions: male, CD-1, mouse, plasma, ip, 2 mg/kg, individual mice M1-M3, read-out: MRT0-last
endpoint: MRT last (min)
Give a bare numeral; the unit min is implied.

# MRT last of COc1ccc(-c2cccc(F)c2)cc1Nc1ncnc2[nH]nc(-c3cc[nH]n3)c12 [8168B] = 45.6

====

# test protocol: Pharmacokinetic study, IV administration in male CD-1 mice
# Type: in vivo
# measurement conditions: male, CD-1, mouse, plasma, iv, 2 mg/kg, individual mice M1-M3
endpoint: concentration at 5 h (ng/mL)
Expressed in ng/mL, but write only the number.

Briefly, concentration at 5 h measured for COc1ccc(-c2cccc(F)c2)cc1Nc1ncnc2[nH]nc(-c3cc[nH]n3)c12 [8168B] : 7.32

====

# test protocol: Pharmacokinetic study, IP administration in male CD-1 mice
# Assay type: in vivo
# measurement conditions: male, CD-1, mouse, plasma, ip, 2 mg/kg, Mean
endpoint: AUC (ng·h/mL)
// return numeric value only (unit: ng·h/mL, not printed)

For this molecule ( COc1ccc(-c2ccc(F)cc2)cc1Nc1ncnc2[nH]nc(-c3cc[nH]n3)c12 [8168C] ), measured AUC is 170

Short answer for COc1ccc(-c2cccc(F)c2)cc1Nc1ncnc2[nH]nc(-c3cc[nH]n3)c12 [8168B] : AUC was 175

====

# test protocol: Pharmacokinetic study, IV administration in male CD-1 mice
# Type: in vivo
# measurement conditions: male, CD-1, mouse, plasma, iv, 2 mg/kg, Mean
Please respond with reported AUC(0-t) for every item in the list.
Give just the number in ng·h/mL; leave the unit off.

# AUC(0-t) (compound: COc1ccc(-c2ccc(F)cc2)cc1Nc1ncnc2[nH]nc(-c3cc[nH]n3)c12 [8168C] ) is 497

For reference, reported AUC(0-t) for COc1ccc(-c2cccc(F)c2)cc1Nc1ncnc2[nH]nc(-c3cc[nH]n3)c12 [8168B] stands at 191

====

# measured target: Axl+ Ba/F3 cells (Homo sapiens, UniProt P30530)
# Sequence (P30530 1-894): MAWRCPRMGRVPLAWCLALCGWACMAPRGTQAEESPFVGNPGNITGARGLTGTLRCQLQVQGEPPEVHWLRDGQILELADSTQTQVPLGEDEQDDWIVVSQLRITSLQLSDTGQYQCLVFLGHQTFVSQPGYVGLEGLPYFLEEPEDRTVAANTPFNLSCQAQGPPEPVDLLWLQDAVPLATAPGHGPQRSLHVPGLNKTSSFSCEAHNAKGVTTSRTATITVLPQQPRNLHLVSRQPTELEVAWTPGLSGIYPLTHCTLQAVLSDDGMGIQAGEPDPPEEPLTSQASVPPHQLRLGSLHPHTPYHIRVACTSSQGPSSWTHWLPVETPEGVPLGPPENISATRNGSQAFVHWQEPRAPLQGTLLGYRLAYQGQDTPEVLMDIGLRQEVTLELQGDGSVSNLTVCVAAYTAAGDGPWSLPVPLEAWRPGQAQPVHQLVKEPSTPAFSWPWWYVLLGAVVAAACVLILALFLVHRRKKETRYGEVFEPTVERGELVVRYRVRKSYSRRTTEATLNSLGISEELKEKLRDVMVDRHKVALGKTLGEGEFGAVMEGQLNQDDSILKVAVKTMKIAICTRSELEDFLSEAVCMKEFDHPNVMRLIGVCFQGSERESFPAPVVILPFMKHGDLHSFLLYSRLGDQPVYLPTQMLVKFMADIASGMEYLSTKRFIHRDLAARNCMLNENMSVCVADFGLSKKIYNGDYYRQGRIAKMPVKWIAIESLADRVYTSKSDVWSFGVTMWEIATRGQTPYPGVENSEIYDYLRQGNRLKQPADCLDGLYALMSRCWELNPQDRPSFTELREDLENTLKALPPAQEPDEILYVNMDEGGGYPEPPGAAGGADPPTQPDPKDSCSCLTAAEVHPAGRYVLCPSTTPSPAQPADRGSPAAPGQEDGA
# test protocol: Ba/F3 proliferation assay, Axl+
# Assay type: cell-based
# measurement conditions: Tables 7 and 8; read-out: Ba/F3 line IC50, Axl+
Record form. Attribute: GI50. Fill in for each entry.
Expressed in µM, but write only the number.

Recorded GI50 (molecule COc1ccc(-c2ccccc2)cc1Nc1ncnc2[nH]nc(-c3cccs3)c12 [Cmpd 45B] ): 4.03

Per the records, this molecule ( "COc1ccc(-c2ccccc2)cc1Nc1ncnc2[nH]nc(-c3ccoc3)c12" ) has GI50 equal to 2.96

====

Provide the reported GI50 of each item.
# measured target: Axl+ Ba/F3 cells (Homo sapiens)
# test protocol: Ba/F3 proliferation assay, Axl+
# Assay type: cell-based
# measurement conditions: Tables 7 and 8; read-out: Ba/F3 line IC50, Axl+
Unit nM implied. Number only.

Given item "COc1ccc(-c2ccccn2)cc1Nc1ncnc2[nH]cc(-c3cc[nH]n3)c12" , the value recorded as its GI50 is 1570

Consider COc1ccc(-c2ccccc2)cc1Nc1ncnc2[nH]nc(-c3ccc4ccccc4c3)c12 [Cmpd 190C] . Its measured GI50 is 643

Per the record, COc1ccc(-c2ccccc2)cc1Nc1ncnc2[nH]nc(-c3ccc(C#N)cc3)c12 [Cmpd 191D] has GI50 of 1010

The recorded GI50 for entry "COc1ccc(-c2ccsc2)cc1Nc1ncnc2[nH]cc(-c3cc[nH]n3)c12" equals 697

====

# test protocol: Pharmacokinetic study, IV administration in male CD-1 mice
# Format: in vivo
# measurement conditions: male, CD-1, mouse, plasma, iv, 2 mg/kg, individual mice M1-M3
endpoint: AUC (ng·h/mL)
// units = ng·h/mL; emit number, no label

The compound identified as COc1ccc(-c2ccc(F)cc2)cc1Nc1ncnc2[nH]nc(-c3cc[nH]n3)c12 [8168C] registered its AUC at 496

Sure, the documented AUC for COc1ccc(-c2cccc(F)c2)cc1Nc1ncnc2[nH]nc(-c3cc[nH]n3)c12 [8168B] is 183

====

# test protocol: Pharmacokinetic study, IV administration in male CD-1 mice
# Type: in vivo
# measurement conditions: male, CD-1, mouse, plasma, iv, 2 mg/kg, individual mice M1-M3
endpoint: concentration at 0.08 h (ng/mL)
// return numeric value only (unit: ng/mL, not printed)

# concentration at 0.08 h (compound: COc1ccc(-c2ccc(F)cc2)cc1Nc1ncnc2[nH]nc(-c3cc[nH]n3)c12 [8168C] ) is 601

Per the records, this compound ( COc1ccc(-c2cccc(F)c2)cc1Nc1ncnc2[nH]nc(-c3cc[nH]n3)c12 [8168B] ) has concentration at 0.08 h equal to 55.1

====

# test protocol: Pharmacokinetic study, IV administration in male CD-1 mice
# Type: in vivo
# measurement conditions: male, CD-1, mouse, plasma, iv, 2 mg/kg, Mean
endpoint: concentration at 24 h
Give me the value, and tack the unit on after it.

The compound listed as COc1ccc(-c2cccc(F)c2)cc1Nc1ncnc2[nH]nc(-c3cc[nH]n3)c12 [8168B] has a reported concentration at 24 h of 4.44 ng/mL

====

# test protocol: Pharmacokinetic study, IP administration in male CD-1 mice
# Format: in vivo
# measurement conditions: male, CD-1, mouse, plasma, ip, 2 mg/kg, individual mice M1-M3
endpoint: concentration at 5 h (ng/mL)
Quick reminder: number only, in ng/mL, skip the unit.

Lab book: concentration at 5 h of COc1ccc(-c2ccc(F)cc2)cc1Nc1ncnc2[nH]nc(-c3cc[nH]n3)c12 [8168C] noted as 2.52

====

# test protocol: Pharmacokinetic study, IP administration in male CD-1 mice
# Type: in vivo
# measurement conditions: male, CD-1, mouse, plasma, ip, 2 mg/kg, Mean
endpoint: concentration at 3 h (ng/mL)
Give the value in ng/mL but do not write ng/mL after it.

The molecule listed as COc1ccc(-c2cccc(F)c2)cc1Nc1ncnc2[nH]nc(-c3cc[nH]n3)c12 [8168B] shows concentration at 3 h equal to 2.92

Query COc1ccc(-c2ccc(F)cc2)cc1Nc1ncnc2[nH]nc(-c3cc[nH]n3)c12 [8168C] yields concentration at 3 h of 5.9

====

# test protocol: Pharmacokinetic study, IV administration in male CD-1 mice
# Assay type: in vivo
# measurement conditions: male, CD-1, mouse, plasma, iv, 2 mg/kg, Mean
endpoint: concentration at 0.25 h

Recorded result, COc1ccc(-c2cccc(F)c2)cc1Nc1ncnc2[nH]nc(-c3cc[nH]n3)c12 [8168B] , concentration at 0.25 h: 31.6 ng/mL

concentration at 0.25 h in this record for COc1ccc(-c2ccc(F)cc2)cc1Nc1ncnc2[nH]nc(-c3cc[nH]n3)c12 [8168C] : 426 ng/mL
